Source listed as paper doi:10.1101/2024.03.05.583629.

Here, each record is paired with measured binding signal data.
biological target: pT7_6His-AlfaTag-HOXD13 (human, UniProt P35453 263-343); assay: PADIT-seq; details: dsDNA, one strand shown
Sequence (P35453 263-343): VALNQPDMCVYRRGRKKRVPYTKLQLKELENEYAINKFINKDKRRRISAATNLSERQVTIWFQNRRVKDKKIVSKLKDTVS
measured-quantity: binding signal (log2FC)

[[record]]
seq_text = "CTCGAGGATATCAAGATCTGGCCTCGGCCGCCCAGCGGGAACCTCTAGCTAGCCGACTCACTATAGGGATAATCGCCCTGAGCAAAGACC"
recorded_measurement = -0.602

[[record]]
seq_text = "CTCGAGGATATCAAGATCTGGCCTCGGCTTTTTAAAGGGAACCTCTAGCTAGCCGACTCACTATAGGGATAATCGCCCTGAGCAAAGACC"
recorded_measurement = 2.54

[[record]]
seq_text = "CTCGAGGATATCAAGATCTGGCCTCGGCTGATGGGCGGGAACCTCTAGCTAGCCGACTCACTATAGGGATAATCGCCCTGAGCAAAGACC"
recorded_measurement = -0.976

[[record]]
seq_text = "CTCGAGGATATCAAGATCTGGCCTCGGCTAGTTAAAAGGAACCTCTAGCTAGCCGACTCACTATAGGGATAATCGCCCTGAGCAAAGACC"
recorded_measurement = 2.53

[[record]]
seq_text = "CTCGAGGATATCAAGATCTGGCCTCGGCCTTTTAAGCGGAACCTCTAGCTAGCCGACTCACTATAGGGATAATCGCCCTGAGCAAAGACC"
recorded_measurement = 0.916

[[record]]
seq_text = "CTCGAGGATATCAAGATCTGGCCTCGGCCTTTTATAAGGAACCTCTAGCTAGCCGACTCACTATAGGGATAATCGCCCTGAGCAAAGACC"
recorded_measurement = 3.23

[[record]]
seq_text = "CTCGAGGATATCAAGATCTGGCCTCGGCGCGTTAGCGGGAACCTCTAGCTAGCCGACTCACTATAGGGATAATCGCCCTGAGCAAAGACC"
recorded_measurement = -0.986

